# study_target: Calcium sensing receptor (hCaSR) (Homo sapiens, UniProt P41180)
# Sequence (P41180 20-1078): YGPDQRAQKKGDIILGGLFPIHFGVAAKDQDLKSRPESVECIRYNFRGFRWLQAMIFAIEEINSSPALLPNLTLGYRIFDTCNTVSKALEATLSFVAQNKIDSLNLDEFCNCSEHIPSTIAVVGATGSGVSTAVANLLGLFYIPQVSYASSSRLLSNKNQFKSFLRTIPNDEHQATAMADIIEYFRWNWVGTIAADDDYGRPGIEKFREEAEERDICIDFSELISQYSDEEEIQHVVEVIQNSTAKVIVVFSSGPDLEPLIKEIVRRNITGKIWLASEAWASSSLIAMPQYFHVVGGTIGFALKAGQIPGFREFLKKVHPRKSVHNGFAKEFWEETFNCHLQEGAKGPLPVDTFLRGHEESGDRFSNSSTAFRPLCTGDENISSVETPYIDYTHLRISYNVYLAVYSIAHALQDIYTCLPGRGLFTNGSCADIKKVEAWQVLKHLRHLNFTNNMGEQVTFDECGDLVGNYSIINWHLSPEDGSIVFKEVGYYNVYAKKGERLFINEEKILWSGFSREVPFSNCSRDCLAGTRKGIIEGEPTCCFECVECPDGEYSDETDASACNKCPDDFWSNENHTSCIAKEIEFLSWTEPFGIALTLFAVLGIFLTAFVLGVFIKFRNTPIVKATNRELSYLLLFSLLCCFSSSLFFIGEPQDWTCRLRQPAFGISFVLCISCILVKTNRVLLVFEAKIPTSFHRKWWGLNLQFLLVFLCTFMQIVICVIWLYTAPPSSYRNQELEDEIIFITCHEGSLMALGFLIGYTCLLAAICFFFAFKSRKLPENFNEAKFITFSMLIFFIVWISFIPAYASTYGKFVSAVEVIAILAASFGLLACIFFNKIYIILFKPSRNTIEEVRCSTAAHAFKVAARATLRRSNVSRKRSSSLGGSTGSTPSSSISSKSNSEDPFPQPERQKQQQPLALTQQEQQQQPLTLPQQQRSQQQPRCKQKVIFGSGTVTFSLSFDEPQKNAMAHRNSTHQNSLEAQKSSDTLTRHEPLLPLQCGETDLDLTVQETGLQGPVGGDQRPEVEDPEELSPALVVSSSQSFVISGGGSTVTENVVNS
# assay_overview: In-vitro assay of calcimimetics through modulation of calcium sensing receptor: increase in intracellular calcium [Ca2+]i, FLIPR
# test_parameters: stably transfected HEK293 cells expressing hCaSR; Fluo4NW dye; 0.3 mM CaCl2; 8-point assay; read-out: EC50 Range
Structures can show the parent of a compound that is named as a salt.
Listing of entries alongside the reported EC50.

Example results:
{"columns": ["molecule", "study_target", "EC50"],
 "data": [
  ["C[C@@H](NCCC1CN(c2ccc(OCC(=O)O)cc2)c2cccc(F)c2O1)c1cccc2ccccc12 (single isomer, unassigned) [Example 164a, hydrochloride]", "Calcium sensing receptor (hCaSR) (Homo sapiens, UniProt P41180)", "< 0.02 µM"],
  ["C[C@@H](NCC1CN(c2ccc(C(=O)O)c(C(F)(F)F)c2)c2ccccc2O1)c1cccc2ccccc12 (single isomer, unassigned) [Example 64b, hydrochloride]", "Calcium sensing receptor (hCaSR) (Homo sapiens, UniProt P41180)", "< 0.02 µM"],
  ["C[C@@H](NCC1CN(c2ccc(C(F)(F)F)c(C(=O)O)c2)c2ccccc2O1)c1cccc2ccccc12 (single isomer, unassigned) [Example 60a, hydrochloride]", "Calcium sensing receptor (hCaSR) (Homo sapiens, UniProt P41180)", "0.02 to 0.05 µM"],
  ["Cc1cc(N2CC(CN[C@H](C)c3cccc4ccccc34)Oc3ccccc32)ccc1C(=O)O (single isomer, unassigned) [Example 73b, hydrochloride]", "Calcium sensing receptor (hCaSR) (Homo sapiens, UniProt P41180)", "< 0.02 µM"],
  ["Cc1cc(C(=O)O)cc(N2CC(CN[C@H](C)c3cccc4ccccc34)Oc3ccccc32)c1 (single isomer, unassigned) [Example 62a, hydrochloride]", "Calcium sensing receptor (hCaSR) (Homo sapiens, UniProt P41180)", "0.05 to 0.2 µM"]
]}

Prompt: For the molecule C[C@@H](NCCC1CN(c2ccc(CC(=O)O)cc2)c2ccccc2O1)c1cccc2ccccc12 (some centres unmarked) [Example 143a, acetic acid hydrochloride] , what EC50 is on record?
Completion: 0.05 to 0.2 µM

Prompt: For the molecule C[C@@H](NCCC1CN(c2ccc(CCC(=O)O)cc2)c2ccccc2O1)c1cccc2ccccc12 (some centres unmarked) [Example 139a, hydrochloride] , what EC50 is on record?
Completion: < 0.02 µM

Prompt: For the molecule C[C@@H](NCC1CN(c2ccc(Cl)c(C(=O)O)c2)c2ccccc2O1)c1cccc2ccccc12 (single isomer, unassigned) [Example 75b, hydrochloride] , what EC50 is on record?
Completion: 0.05 to 0.2 µM

Prompt: For the molecule CC(C)c1ccc(N2CC(CCN[C@H](C)c3cccc4ccccc34)Oc3ccccc32)cc1C(=O)O (some centres unmarked) [Example 137a, hydrochloride] , what EC50 is on record?
Completion: 0.05 to 0.2 µM

Prompt: For the molecule C[C@@H](NCCC1CN(c2cccc(OCC(=O)O)c2)c2cc(F)ccc2O1)c1cccc2ccccc12 (single isomer, unassigned) [Example 169a, hydrochloride] , what EC50 is on record?
Completion: < 0.02 µM

Prompt: For the molecule C[C@@H](NCCC1CN(c2cccc(C(=O)O)c2)c2cc(F)ccc2O1)c1cccc2ccccc12 (single isomer, unassigned) [Example 167a] , what EC50 is on record?
Completion: < 0.02 µM
